# System: P. falciparum 3D7 trophozoites
# assay_summary: Metabolomic fingerprint profiling LC-MS
# Assay type: cell-based, Plasmodium falciparum
# settings: metabolite UDP-N-acetyl-glucosamine, S2 Table Metabolomics
measurement_label: UDP-N-acetyl-glucosamine
Keep the answer to the number alone.

Example molecules with recorded UDP-N-acetyl-glucosamine:
>>> measured_result("CCCCCC(=O)N1c2ccccc2N=C2CC(c3ccc(OC)c(OC)c3)CC(O)=C2C1c1ccc(C(F)(F)F)cc1 (stereo not shown)")
-0.2414
>>> measured_result("CCOC(=O)C1=C(c2ccccc2)N=c2sc(=Cc3cc(C)n(-c4ccc(F)cc4)c3C)c(=O)n2C1c1cccc(OC)c1OC (stereo not shown)")
-0.01529
>>> measured_result("Cc1cc(NC(=O)C2c3ccccc3C(=O)N(CC(C)C)C2c2cccs2)no1 (stereo not shown)")
0.06871

Now, please, on to the next molecule.
Return UDP-N-acetyl-glucosamine measured with P. falciparum 3D7 trophozoites given this molecule: COc1ccccc1N=C1C(=O)c2ccccc2C(O)=C1N1CCCCC1 -0.006531
